TEST_SYSTEM: Phosphatidylinositol 4,5-bisphosphate 3-kinase catalytic subunit alpha isoform (Homo sapiens)
Sequence (P42336 whole entry, canonical isoform): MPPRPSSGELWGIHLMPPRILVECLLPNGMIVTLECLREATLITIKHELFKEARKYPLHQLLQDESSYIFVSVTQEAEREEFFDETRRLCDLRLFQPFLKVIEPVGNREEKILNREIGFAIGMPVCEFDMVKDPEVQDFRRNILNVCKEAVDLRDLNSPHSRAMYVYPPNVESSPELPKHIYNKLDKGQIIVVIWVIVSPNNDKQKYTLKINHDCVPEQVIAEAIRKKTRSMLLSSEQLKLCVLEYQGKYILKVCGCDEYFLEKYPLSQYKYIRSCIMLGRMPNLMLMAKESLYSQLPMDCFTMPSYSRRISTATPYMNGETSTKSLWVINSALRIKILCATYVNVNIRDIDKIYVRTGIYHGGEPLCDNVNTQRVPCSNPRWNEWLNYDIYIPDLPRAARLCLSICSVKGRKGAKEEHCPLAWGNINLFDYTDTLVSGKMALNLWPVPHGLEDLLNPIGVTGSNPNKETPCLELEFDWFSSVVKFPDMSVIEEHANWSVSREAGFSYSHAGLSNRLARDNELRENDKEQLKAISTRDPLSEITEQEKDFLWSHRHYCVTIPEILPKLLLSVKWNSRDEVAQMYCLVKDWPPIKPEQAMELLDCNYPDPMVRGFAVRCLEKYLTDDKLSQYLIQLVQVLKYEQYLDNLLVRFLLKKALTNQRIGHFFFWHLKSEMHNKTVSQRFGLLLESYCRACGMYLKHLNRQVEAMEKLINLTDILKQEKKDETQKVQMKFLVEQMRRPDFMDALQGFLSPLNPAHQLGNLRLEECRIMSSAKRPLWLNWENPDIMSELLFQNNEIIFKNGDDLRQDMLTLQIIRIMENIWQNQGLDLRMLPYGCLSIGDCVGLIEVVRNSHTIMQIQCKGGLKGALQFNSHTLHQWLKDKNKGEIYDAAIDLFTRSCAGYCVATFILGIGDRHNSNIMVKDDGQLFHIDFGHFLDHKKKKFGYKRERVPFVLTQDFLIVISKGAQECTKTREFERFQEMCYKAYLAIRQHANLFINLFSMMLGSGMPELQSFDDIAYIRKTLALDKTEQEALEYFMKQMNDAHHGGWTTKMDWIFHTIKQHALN
TEST_DETAILS: Inhibition of PI3K alpha (unknown origin) assessed as [33P] incorporation in substrate by TopCount microplate scintillation counting analysis
pIC50: −log10 of the molar value.
READOUT: pIC50

Look up pIC50 for this molecule: `COc1ccc(Oc2cc(C)c(-c3csc(NC(=O)c4ccnc(F)c4)n3)c(C)c2)cc1`
< 5.00

====

TEST_DETAILS: Volume of distribution in Sprague-Dawley rat at 2 mg/kg, iv compound formulated with 5% DMSO, 10% cremophor and 85% water by LC-MS/MS analysis
Format: ADME, organism-based
Parameters: dose 2 mg/kg, route intravenous
STUDY_CONDITIONS: in vivo
READOUT: Vd (L/kg)
Your answer is read as L/kg, so omit the unit and give the number.

Look up Vd for this molecule: `COc1ccc(Oc2cc(C)c(-c3csc(NC(=O)c4ccnc(F)c4)n3)c(C)c2)cc1`
0.948
